From: patent US20200392228A1

targetSystem: T1, mouse MAdCAM expressed on cells (mouse, UniProt Q61826 22-405)
T1 construct: whole, on cells
T1 sequence (looked up): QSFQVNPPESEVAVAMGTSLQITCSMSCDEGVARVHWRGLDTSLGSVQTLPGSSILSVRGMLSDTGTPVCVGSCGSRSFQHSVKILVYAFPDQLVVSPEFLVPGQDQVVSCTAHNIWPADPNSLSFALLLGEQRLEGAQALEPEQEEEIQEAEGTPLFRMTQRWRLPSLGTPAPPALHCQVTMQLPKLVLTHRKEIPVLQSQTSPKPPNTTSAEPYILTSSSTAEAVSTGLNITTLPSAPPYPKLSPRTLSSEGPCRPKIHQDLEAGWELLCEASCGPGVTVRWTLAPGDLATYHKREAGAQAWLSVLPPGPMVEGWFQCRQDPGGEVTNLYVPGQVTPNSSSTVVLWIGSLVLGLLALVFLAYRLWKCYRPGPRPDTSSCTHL
experimentalProtocol: cell binding
propertyMeasured: binding result

Known binding result results, listed for orientation:
binder	binding result
MAdCAM antibody Clone ID 19 of Table 7 (IgG) (antibody, V domains shown, IgG format) VH: EVQLLESGGGLVQPGGSLRLSCAASGFTFEDYAMHWVRQAPGKGLEWVSYLNSDGGSTSYADSVKGRFTISRDNSKNTLYLQMNSLRAEDTAVYYCAKDYCTNGVCAFDYWGQGTLVTVSS VL: DIQMTQSPSSLSASVGDRVTITCRASQSISTYLNWYQQKPGKAPKLLIYDASNLETGVPSRFSGSGSGTDFTLTISSLQPEDFATYYCQQSYTIPITFGQGTRLEIK	no binding
MAdCAM antibody Clone ID 15 of Table 7 (IgG) (antibody, V domains shown, IgG format) VH: QVQLVQSGAEVKKPGASVKVSCKASGYTFTGYYMHWVRQAPGQGLEWMGWIGPNSGDTNYAQKFQGRVTMTRDTSTSTVYMELSSLRSEDTAVYYCARDLDHNWYFDLWGRGTLVTVSS VL: DIVMTQSPLSLPVTPGEPASISCRSSQSLLHSNGYNYLDWYLQKPGQSPQLLIYSSSNRAPGVPDRFSGSGSGTDFTLKISRVEAEDVGVYYCMQALHIPLTFGGGTKVEIK	no binding
MAdCAM antibody Clone ID 74 of Table 7 (IgG) (antibody, V domains shown, IgG format) VH: QVQLVQSGAEVKKPGASVKVSCKASGYTFTGYYMHWVRQAPGQGLEWMGIINPSGGNTKYAQKFQGRVTMTRDTSTSTVYMELSSLRSEDTAVYYCTTADYYYYMDVWGKGTTVTVSS VL: DIQMTQSPSSLSASVGDRVTITCRASQGISNYLAWYQQKPGKAPKLLIYAASSLQSGVPSRFSGSGSGTDFTLTISSLQPEDFATYYCQQYYSNADFGQGTKVEIK	no binding
MAdCAM antibody Clone ID 67 of Table 7 (IgG) (antibody, V domains shown, IgG format) VH: QVQLVQSGAEVKKPGASVKVSCKASGYTFTGYYMHWVRQAPGQGLEWMGMIYPRDGSTSYAQKFQGRVTMTRDTSTSTVYMELSSLRSEDTAVYYCAMTGWGYGMDVWGKGTTVTVSS VL: DIQMTQSPSSLSASVGDRVTITCRASQGINNYLAWYQQKPGKAPKLLIYDASTLQSGVPSRFSGSGSGTDFTLTISSLQPEDFATYYCQQSYSAPPTFGQGTKLEIK	no binding

Report binding result for every entry below.
1. MAdCAM antibody Clone ID 66 of Table 7 (IgG) (antibody, V domains shown, IgG format) VH: QVQLVQSGAEVKKPGASVKVSCKASGYTFTGHYMHWVRQAPGQGLEWMGIINPSGGSTSYAQKFQGRVTMTRDTSTSTVYMELSSLRSEDTAVYYCARDGAWFGEEYYYGMDVWGQGTTVTVSS VL: DIQMTQSPSSLSASVGDRVTITCRASQGISNWLAWYQQKPGKAPKLLIYDASNLETGVPSRFSGSGSGTDFTLTISSLQPEDFATYYCQQYYSFPLYTFGQGTKVEIK
2. MAdCAM antibody Clone ID 68 of Table 7 (IgG) (antibody, V domains shown, IgG format) VH: EVQLLESGGGLVQPGGSLRLSCAASGFTFGDYAMSWVRQAPGKGLEWVAVVSYDGTNKYYADSVKGRFTISRDNSKNTLYLQMNSLRAEDTAVYYCAKDICSSTSCYFDLWGRGTLVTVSS VL: DIQMTQSPSSLSASVGDRVTITCRASQNINNYVNWYQQKPGKAPKLLIYDASNLETGVPSRFSGSGSGTDFTLTISSLQPEDFATYYCQQANSFPPTFGQGTRLEIK
3. MAdCAM antibody Clone ID 16 of Table 7 (IgG) (antibody, V domains shown, IgG format) VH: EVQLLESGGGLVQPGGSLRLSCAASGFTFDDYAMHWVRQAPGKGLEWVSYIDASGTTIYYADSVKGRFTISRDNSKNTLYLQMNSLRAEDTAVYYCAKDQAAAGYWYFDLWGRGTLVTVSS VL: DIQMTQSPSSLSASVGDRVTITCQASQDISNYLNWYQQKPGKAPKLLIYKASTLESGVPSRFSGSGSGTDFTLTISSLQPEDFATYYCQQSYSTPITFGQGTRLEIK
4. MAdCAM antibody Clone ID 22 of Table 7 (IgG) (antibody, V domains shown, IgG format) VH: EVQLLESGGGLVQPGGSLRLSCAASGFTFDDYAMHWVRQAPGKGLEWVSGISWNSGSIGYADSVKGRFTISRDNSKNTLYLQMNSLRAEDTAVYYCAKDIVAAGHYYYGMDVWGQGTTVTVSS VL: DIQMTQSPSSLSASVGDRVTITCQASQDISNYLNWYQQKPGKAPKLLIYDASNLETGVPSRFSGSGSGTDFTLTISSLQPEDFATYYCQQSYSTPLTFGGGTKVEIK
5. MAdCAM antibody Clone ID 30 of Table 7 (IgG) (antibody, V domains shown, IgG format) VH: EVQLLESGGGLVQPGGSLRLSCAASGFTFSSYAMHWVRQAPGKGLEWVSGISGSGGSAYYADSVKGRFTISRDNSKNTLYLQMNSLRAEDTAVYYCATSQAPVDYYYYGMDVWGQGTTVTVSS VL: DIQMTQSPSSLSASVGDRVTITCRASQSISSWLAWYQQKPGKAPKLLIYAASNLQRGVPSRFSGSGSGTDFTLTISSLQPEDFATYYCQQSYSIPITFGQGTKVEIK
6. MAdCAM antibody Clone ID 43 of Table 7 (IgG) (antibody, V domains shown, IgG format) VH: QVQLVQSGAEVKKPGASVKVSCKASGYTFTSYGISWVRQAPGQGLEWMGWMHPKSGDTGLTQKFQGRVTMTRDTSTSTVYMELSSLRSEDTAVYYCARDTPYYYYGMDVWGQGTTVTVSS VL: DIQMTQSPSSLSASVGDRVTITCRASQSISSWLAWYQQKPGKAPKLLIYAASSLQSGVPSRFSGSGSGTDFTLTISSLQPEDFATYYCQQSYSVPITFGQGTKVEIK

Key:
1: no binding; 2: no binding; 3: no binding; 4: no binding; 5: binds; 6: no binding
